- SYSTEM_UNDER_TEST: Recombinant ROCK1 (amino acids 1-477) (Homo sapiens)
- Construct: Recombinant ROCK1 (amino acids 1-477); by word order, ROCK1 from Carna Biosciences
- EXPERIMENT_NOTES: ROCK inhibition assay, LANCE Ultra TR-FRET kinase assay (ROCK1)
- APPLIED_CONDITIONS: 1 μM ATP, 50 nM ULight-CREBtide substrate
pIC50: −log10 of the molar value.
ASSAY_METRIC: pIC50

> print(dat)
                                    compound  assay.metric    data.value
 1  COc1cc(F)cc(Cn2cnc3cc(-c4c[nH]nc4Cl)ccc3c2=O)c1         pIC50  7.00 to 7.96
 2  Nc1cc(-c2ccc3c(=O)n(Cc4cccc(C(=O)NC5CCOCC5)c4)ccc3c2)ccn1         pIC50  6.30 to 7.00
 3  Cn1ccc(NC(=O)c2cccc(Cn3ccc4cc(-c5cn[nH]c5C(F)(F)F)ccc4c3=O)c2)n1         pIC50  7.00 to 7.96
 4  Nc1cc(-c2ccc3c(=O)n(Cc4cccc(C(=O)Nc5ccno5)c4)ccc3c2)ccn1         pIC50        < 6.30
 5  Cn1nccc1-c1ccc2c(=O)n(Cc3cccc(C(=O)NC4COC4)c3)ccc2c1         pIC50  6.30 to 7.00
 6  O=C(NCC1COC1)c1cccc(Cn2cnc3cc(-c4cn[nH]c4C(F)(F)F)ccc3c2=O)c1         pIC50  7.00 to 7.96
 7  N#Cc1cccc(C(CN)n2cnc3cc(-c4cn[nH]c4C(F)(F)F)ccc3c2=O)c1 (stereo not drawn)         pIC50        < 6.30
 8  Cc1nocc1-c1ccc2c(=O)n(Cc3cccc(C(=O)NCc4ccc(F)nc4)c3)ccc2c1         pIC50  7.00 to 7.96
 9  CNC(=O)c1cccc(Cn2ccc3cc(-c4c[nH]nc4C)ncc3c2=O)c1         pIC50  7.00 to 7.96
10  O=c1c2ccc(-c3cn[nH]c3)cc2ccn1Cc1cccc(O)c1         pIC50  6.30 to 7.00
11  CN1CCc2cc(NC(=O)c3cccc(Cn4ccc5cc(-c6ccnn6C)ccc5c4=O)c3)ccc2C1         pIC50        > 8.00
12  C[C@H](c1cccc(C(=O)NCCO)c1)n1cnc2cc(-c3cn[nH]c3C(F)(F)F)ccc2c1=O         pIC50  7.00 to 7.96
13  CN1CC(CNC(=O)c2cccc(Cn3ccc4cc(-c5ccnn5C)ccc4c3=O)c2)C1 [Compound 168]         pIC50        > 8.00
14  O=C(N[C@H]1CC[C@H](O)CC1)c1cccc(Cn2ccc3cc(N4CCOCC4)ccc3c2=O)c1         pIC50        < 6.30
15  CC(=O)Nc1cc(Cn2ccc3cc(-c4cnoc4C)ccc3c2=O)ccc1F         pIC50  6.30 to 7.00
16  CNC(=O)c1cccc(Cn2ccc3cc(-c4ccnn4C)ccc3c2=O)c1         pIC50  6.30 to 7.00
17  O=C(NCc1ccccc1)c1cccc(Cn2cnc3cc(-c4cn[nH]c4C(F)(F)F)ccc3c2=O)c1         pIC50  6.30 to 7.00
18  Nc1cc(-c2ccc3c(=O)n(Cc4cccc(C(=O)NC5CCCC5)c4)ccc3c2)ccn1         pIC50        < 6.30
19  COc1cccc(Cn2cnc3cc(-c4conc4C)ccc3c2=O)c1         pIC50  7.00 to 7.96
20  Cc1nocc1-c1ccc2c(=O)n(Cc3cccc(C(=O)Nc4nc5c(s4)CCN(C)C5)c3)ccc2c1         pIC50        > 8.00
21  [2H]C([2H])([2H])NC(=O)c1cccc([C@@H](C)n2cnc3cc(-c4cn[nH]c4C(F)(F)F)ccc3c2=O)c1         pIC50  7.00 to 7.96
22  O=C(N[C@H]1CC[C@@H](O)CC1)c1cccc(Cn2cnc3cc(-c4cn[nH]c4Cl)ccc3c2=O)c1         pIC50  7.00 to 7.96
23  Cc1nocc1-c1ccc2c(=O)n(Cc3cc(F)cc(C(=O)NCC4CCN(C5CC5)CC4)c3)ccc2c1         pIC50  7.00 to 7.96
24  [2H]C([2H])([2H])NC(=O)c1cccc([C@@H](C)n2cnc3cc(-c4cn[nH]c4Cl)ccc3c2=O)c1         pIC50  7.00 to 7.96

* * *

- SYSTEM_UNDER_TEST: Recombinant ROCK1 (amino acids 1-477) (Homo sapiens, UniProt Q13464)
- Construct: Recombinant ROCK1 (amino acids 1-477); by word order, ROCK1 from Carna Biosciences
- Sequence (Q13464 1-477): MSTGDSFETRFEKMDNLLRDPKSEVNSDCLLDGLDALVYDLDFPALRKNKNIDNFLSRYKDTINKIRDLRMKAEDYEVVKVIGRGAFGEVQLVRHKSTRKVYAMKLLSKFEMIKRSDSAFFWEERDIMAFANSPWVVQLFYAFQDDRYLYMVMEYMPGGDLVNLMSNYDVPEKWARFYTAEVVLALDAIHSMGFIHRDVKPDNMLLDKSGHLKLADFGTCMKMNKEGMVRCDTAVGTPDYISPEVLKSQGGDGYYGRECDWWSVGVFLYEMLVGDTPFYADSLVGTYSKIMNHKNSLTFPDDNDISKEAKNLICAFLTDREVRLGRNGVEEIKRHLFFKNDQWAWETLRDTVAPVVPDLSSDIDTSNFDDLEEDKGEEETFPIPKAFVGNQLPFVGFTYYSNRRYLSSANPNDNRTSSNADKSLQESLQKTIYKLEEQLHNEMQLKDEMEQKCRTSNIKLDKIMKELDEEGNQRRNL
- EXPERIMENT_NOTES: ROCK inhibition assay, LANCE Ultra TR-FRET kinase assay (ROCK1)
- APPLIED_CONDITIONS: 1 μM ATP, 50 nM ULight-CREBtide substrate
pIC50: −log10 of the molar value.
ASSAY_METRIC: pIC50

> print(dat)
                                   molecule                         system.under.test  assay.metric    data.value
1  CNC(=O)c1cccc([C@@H](C)n2cnc3cc(-c4cn[nH]c4C)ccc3c2=O)c1 [Compound 441]  Recombinant ROCK1 (amino acids 1-477) (Homo sapiens, UniProt Q13464)         pIC50  7.00 to 7.96
2  CC(C)NC(=O)c1cccc([C@@H](C)n2cnc3cc(-c4cn[nH]c4C(F)(F)F)ccc3c2=O)c1 [Compound 445]  Recombinant ROCK1 (amino acids 1-477) (Homo sapiens, UniProt Q13464)         pIC50  7.00 to 7.96
3  CS(=O)(=O)Nc1ccc(CNC(=O)c2cccc(Cn3cnc4cc(-c5cn[nH]c5C(F)(F)F)ccc4c3=O)c2)cc1 [Compound 373]  Recombinant ROCK1 (amino acids 1-477) (Homo sapiens, UniProt Q13464)         pIC50  7.00 to 7.96
4  C[C@H](c1cccc(C(=O)N(C)C)c1)n1cnc2cc(-c3ccnc(N)c3)ccc2c1=O [Compound 482]  Recombinant ROCK1 (amino acids 1-477) (Homo sapiens, UniProt Q13464)         pIC50        < 6.30
5  Cc1nocc1-c1ccc2c(=O)n(Cc3cccc(C(=O)N[C@H]4C[C@@H](O)C4)c3)ccc2c1 [Compound 72]  Recombinant ROCK1 (amino acids 1-477) (Homo sapiens, UniProt Q13464)         pIC50  6.30 to 7.00

* * *

pIC50 by entry:
- SYSTEM_UNDER_TEST: Recombinant ROCK2 (amino acids 5-554) (Homo sapiens, UniProt O75116)
- Construct: ROCK2 (amino acids 5-554); by word order, ROCK2 from SignalChem
- Sequence (O75116 5-554): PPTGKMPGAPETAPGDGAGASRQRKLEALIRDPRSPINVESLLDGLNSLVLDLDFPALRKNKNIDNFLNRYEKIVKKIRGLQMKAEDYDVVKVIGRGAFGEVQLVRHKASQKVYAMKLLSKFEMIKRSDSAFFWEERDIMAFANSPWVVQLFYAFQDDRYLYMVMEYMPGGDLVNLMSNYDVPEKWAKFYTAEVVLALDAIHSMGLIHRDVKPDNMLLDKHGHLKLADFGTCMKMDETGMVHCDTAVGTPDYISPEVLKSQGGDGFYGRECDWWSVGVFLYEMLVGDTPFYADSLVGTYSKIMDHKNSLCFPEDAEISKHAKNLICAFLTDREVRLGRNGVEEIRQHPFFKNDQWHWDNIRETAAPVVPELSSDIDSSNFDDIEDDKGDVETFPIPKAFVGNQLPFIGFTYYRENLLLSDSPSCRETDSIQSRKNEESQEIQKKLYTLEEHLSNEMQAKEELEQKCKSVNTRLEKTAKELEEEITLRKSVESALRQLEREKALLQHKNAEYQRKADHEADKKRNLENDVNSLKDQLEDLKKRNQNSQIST
- EXPERIMENT_NOTES: ROCK inhibition assay, LANCE Ultra TR-FRET kinase assay (ROCK2)
- APPLIED_CONDITIONS: 4 μM ATP, 50 nM ULight-CREBtide substrate
pIC50: −log10 of the molar value.
ASSAY_METRIC: pIC50

> print(dat)
                                    compound  assay.metric    data.value
 1  Cc1nocc1-c1ccc2c(=O)n(Cc3cccc(C(=O)Nc4nc5c(s4)CCNC5)c3)ccc2c1         pIC50        > 8.00
 2  Cc1n[nH]cc1-c1ccc2c(=O)n(Cc3cccc(C(=O)Nc4ccc(NS(C)(=O)=O)cc4)c3)ccc2c1         pIC50  6.30 to 7.00
 3  CNC(=O)c1cc(F)cc(Cn2ccc3cc(-c4conc4C)ccc3c2=O)c1         pIC50        > 8.00
 4  O=C(NCC1COC1)c1cc(F)cc(Cn2ccc3cc(-c4c[nH]nc4C(F)(F)F)ccc3c2=O)c1         pIC50        > 8.00
 5  Nc1cc(-c2ccc3c(=O)n(Cc4cc(F)cc(C(=O)Nc5ccon5)c4)ccc3c2)ccn1         pIC50  6.30 to 7.00
 6  NCC(c1cccc(Cl)c1)n1cnc2cc(-c3cn[nH]c3Cl)ccc2c1=O (stereo not shown)         pIC50        > 8.00
 7  Cn1nccc1-c1ccc2c(c1)NCN([C@H](CO)c1cccc(Cl)c1)C2=O         pIC50        < 6.30
 8  Cn1nccc1-c1ccc2c(=O)n(Cc3cccc(C(=O)NCC4CCNCC4)c3)ccc2c1         pIC50        > 8.00
 9  CNC(=O)c1cccc(Cn2cc(CCN(C)C)c3cc(-c4cn[nH]c4Cl)ccc3c2=O)c1         pIC50        > 8.00
10  CC(C)N1CCC(NC(=O)c2cccc(Cn3ccc4cc(-c5ccnn5C)ccc4c3=O)c2)CC1         pIC50  7.00 to 8.00
11  CNC(=O)c1cccc(Cn2ccc3cc(N4CCO[C@@H](C)C4)ccc3c2=O)c1         pIC50  6.30 to 7.00
12  COc1cccc(Cn2cnc3cc(-c4ccncc4)ccc3c2=O)c1         pIC50  7.00 to 8.00
13  O=C(N[C@H]1C[C@H](O)C1)c1cc(F)cc(Cn2ccc3cc(N4CCOCC4)ccc3c2=O)c1         pIC50  6.30 to 7.00
14  O=C(N[C@H]1CC[C@@H](O)CC1)c1cccc(Cn2cnc3cc(-c4cn[nH]c4C(F)(F)F)ccc3c2=O)c1         pIC50        > 8.00
15  Cn1nccc1-c1ccc2c(=O)n(Cc3cc(F)cc(C(=O)NCc4ccc(F)nc4)c3)ccc2c1         pIC50        > 8.00
16  CNC(=O)c1cccc(C(C)n2ccc3cc(-c4cn[nH]c4Cl)ccc3c2=O)c1 (stereo not shown)         pIC50        > 8.00
17  O=C(NCCO)c1cccc(Cn2cnc3cc(-c4cn[nH]c4C(F)F)ccc3c2=O)c1         pIC50        > 8.00
18  CNC(=O)c1cccc([C@@H](C)n2cnc3cc(-c4conc4C)ccc3c2=O)c1         pIC50        > 8.00
19  CNC(=O)c1cc(F)cc(Cn2cc(Cl)c3cc(-c4conc4C)ccc3c2=O)c1         pIC50        > 8.00
20  COc1cccc(Cn2ccc3cc(-c4cn[nH]c4)ccc3c2=O)c1         pIC50  7.00 to 8.00
21  Cc1nocc1-c1ccc2c(=O)n(Cc3cccc(C(=O)Nc4ccc5c(c4)CCN(C(C)C)C5)c3)ccc2c1         pIC50        > 8.00
22  O=C1c2ccc(-c3cn[nH]c3Cl)cc2NCN1[C@H](CO)c1cccc(Cl)c1         pIC50  6.30 to 7.00
23  O=C(Nc1cccc(Cn2ccc3cc(-c4c[nH]nc4Cl)ccc3c2=O)c1)C1COC1         pIC50  7.00 to 8.00
24  O=C(N[C@H]1CC[C@@H](O)CC1)c1cccc(Cn2ccc3cc(N4CCOCC4)ccc3c2=O)c1         pIC50  6.30 to 7.00
25  CC(c1cccc(O)c1)n1ccc2cc(-c3c[nH]nc3Cl)ccc2c1=O (stereo not shown)         pIC50        > 8.00
